The reported measurements were obtained from ChEMBL document CHEMBL1201862.

Below is a list of entries, each paired with its recorded GI50 value.
test system: HOP-18; experiment: NCI tumour cell line growth inhibition, 48 h
Active and inactive are the calls of the source. No stated cut-off is given here; in the data, active = GI50 up to about 1.1 µM and inactive = higher.

Consider the reported GI50 for these compounds:
>>> experimental_value("CS/C(C)=N/OC(=O)NCCCCNc1ccc(N=[N+]=[N-])cc1")
"> 100 µM (inactive)"
>>> experimental_value("CC1=C(C(=O)NCc2ccccc2)C(c2ccccc2C)C(C(=O)NCc2ccccc2)=C(C)N1")
"> 53 µM (inactive)"

Here is the next item to consider.
Q: Kindly state the measured GI50 obtained for Cc1c(Cl)ccc2c1NC(=O)C2(O)C1Cc2ccccc2C1=O (stereo not drawn) with HOP-18.
A: > 100 µM (inactive)
